- studyTarget: T1, Taq DNA polymerase (Thermus aquaticus, UniProt P19821 1-832)
- T1 construct: also called Taq enzyme; Taq DNA enzyme
- T1 sequence (P19821 whole entry): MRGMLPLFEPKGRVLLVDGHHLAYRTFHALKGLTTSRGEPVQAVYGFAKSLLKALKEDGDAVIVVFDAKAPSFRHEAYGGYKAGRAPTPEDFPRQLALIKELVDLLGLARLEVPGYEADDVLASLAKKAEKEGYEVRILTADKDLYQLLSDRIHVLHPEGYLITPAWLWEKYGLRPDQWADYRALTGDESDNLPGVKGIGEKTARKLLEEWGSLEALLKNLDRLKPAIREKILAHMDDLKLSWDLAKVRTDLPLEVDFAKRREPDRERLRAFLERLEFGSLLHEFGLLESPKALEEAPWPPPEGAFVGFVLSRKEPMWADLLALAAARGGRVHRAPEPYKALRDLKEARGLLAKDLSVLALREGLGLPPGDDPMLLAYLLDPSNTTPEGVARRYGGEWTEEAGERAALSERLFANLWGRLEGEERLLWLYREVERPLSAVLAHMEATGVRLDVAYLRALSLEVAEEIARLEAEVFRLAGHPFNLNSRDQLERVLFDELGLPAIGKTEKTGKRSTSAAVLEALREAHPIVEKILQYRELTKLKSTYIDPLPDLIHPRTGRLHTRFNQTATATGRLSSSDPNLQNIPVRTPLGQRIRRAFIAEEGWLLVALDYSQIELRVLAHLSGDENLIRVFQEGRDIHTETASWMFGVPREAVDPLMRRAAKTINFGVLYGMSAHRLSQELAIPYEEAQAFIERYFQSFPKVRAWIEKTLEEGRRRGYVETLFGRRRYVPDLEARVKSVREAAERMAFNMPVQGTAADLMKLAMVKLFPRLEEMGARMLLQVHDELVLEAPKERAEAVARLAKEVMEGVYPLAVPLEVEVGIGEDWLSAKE
- testMethodNotes: AMC sensor, antibody immobilised
// reported kon for each item listed
measuredMetric: kon (M⁻¹ s⁻¹)

| binder | measuredMetric | valueObserved |
| --- | --- | --- |
| Mutation 1-41 (antibody, V domains shown, Mutation 1 background; CDRs built) VH: QVQLQQPGAELVKPGASVRLSCQTSVDTFTTYYIYWVKQRPGEGLEWIGGVNPTSNPVFNEKFKSKATLTVDTSSSTAYMQLSSLTSVDSAVYYCTRSVIRRGYYFDYWGQGTALTVSS VL: DIQMTQTTSSLSASLGDRVTISCRASQDINNYINWYQQKPDGTIKLLIYYTSRLNSGVPSRFSGSGSGTDYSLTIANLEQEDIATYFCQQDDTVPVTFGAGTKVELKR | kon | 33100 |
| Mutation 1-34 (antibody, V domains shown, Mutation 1 background; CDRs built) VH: QVQLQQPGAELVKPGASVRLSCQTSVDTFSTYYIYWVKQRPGEGLEWIGGLNPTSGGPVFNEKFKSKATLTVDTSSSTAYMQLSSLTSVDSAVYYCTRSLVRRGYYFDYWGQGTALTVSS VL: DIQMTQTTSSLSASLGDRVTISCRASQDIQNYINWYQQKPDGTIKLLIYYTSRLHSGLPSRFSGSGSGTDYSLTIANLEQEDIATYFCQQDDTLPITFGAGTKVELKR | kon | 62600 |
| Mutation 1-6 (antibody, V domains shown, Mutation 1 background; CDRs built) VH: QVQLQQPGAELVKPGASVRLSCQTSVDTFSTYYIYWVKQRPGEGLEWIGGVNPTSNPVFNEKFKSKATLTVDTSSSTAYMQLSSLTSVDSAVYYCTRSLLRRGYYFDYWGQGTALTVSS VL: DIQMTQTTSSLSASLGDRVTISCRASQDIQNYVNWYQQKPDGTIKLLIYYTSRLNSGIPSRFSGSGSGTDYSLTIANLEQEDIATYFCQQDDTLPVTFGAGTKVELKR | kon | 42100 |
